# Target System: human FPR1 (Homo sapiens)
# Sequence (P21462 whole entry): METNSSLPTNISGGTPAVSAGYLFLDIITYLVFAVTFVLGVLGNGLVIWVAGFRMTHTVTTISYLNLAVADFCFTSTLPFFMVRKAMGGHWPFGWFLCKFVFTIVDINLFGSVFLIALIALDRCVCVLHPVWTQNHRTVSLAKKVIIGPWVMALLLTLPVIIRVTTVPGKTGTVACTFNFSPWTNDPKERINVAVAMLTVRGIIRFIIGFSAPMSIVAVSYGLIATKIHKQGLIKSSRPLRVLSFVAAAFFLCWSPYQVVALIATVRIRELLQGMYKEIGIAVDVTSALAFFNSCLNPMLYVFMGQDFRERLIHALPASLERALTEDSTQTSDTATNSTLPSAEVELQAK
# Assay Procedure: FPR1 cyclic adenosine monophosphate (cAMP) assay
# Measurement Parameters: CHO cells overexpressing human FPR1; forskolin 10 μM; inhibition of cAMP production; HTRF; read-out: hFPR1 cAMP2 EC50
Measurement Kind: pEC50
Scale: negative log10 of molar concentration, which is what pEC50 denotes.

State the recorded pEC50 for this entry: COc1cc(F)c(-c2c(NC(=O)c3ccc(OC(F)F)cc3)c(=O)n(-c3nc(Nc4ncn[nH]4)ccc3C(F)(F)F)n2C)c(F)c1 [Example 234] 5.54

State the recorded pEC50 for this entry: COc1cc(F)c(-c2c(NC(=O)c3ccc(OC(F)F)cc3)c(=O)n(-c3cccc(N4CCCCC4)n3)n2C)c(F)c1 [Example 80] 5.89

State the recorded pEC50 for this entry: COc1cc(F)c(-c2c(NC(=O)c3ccc(OC(F)F)cc3)c(=O)n(-c3nc(N4CC(F)(F)C4)ccc3Cl)n2C)c(F)c1 [Example 145] 5.54

State the recorded pEC50 for this entry: COc1cc(F)c(-c2c(NC(=O)c3ccc(OC(F)F)cc3)c(=O)n(-c3nc(N4CCN(CC(F)(F)F)CC4)ccc3Cl)n2C)c(F)c1 [Example 239] 5.57

State the recorded pEC50 for this entry: COc1cc(F)c(-c2c(NC(=O)c3ccc(OC(F)F)cc3)c(=O)n(-c3cccc(N4CCCCC4=O)n3)n2C)c(F)c1 [Example 150] 5.82

---

# Target System: UniProt:P25090
# Sequence (P25090 1-351): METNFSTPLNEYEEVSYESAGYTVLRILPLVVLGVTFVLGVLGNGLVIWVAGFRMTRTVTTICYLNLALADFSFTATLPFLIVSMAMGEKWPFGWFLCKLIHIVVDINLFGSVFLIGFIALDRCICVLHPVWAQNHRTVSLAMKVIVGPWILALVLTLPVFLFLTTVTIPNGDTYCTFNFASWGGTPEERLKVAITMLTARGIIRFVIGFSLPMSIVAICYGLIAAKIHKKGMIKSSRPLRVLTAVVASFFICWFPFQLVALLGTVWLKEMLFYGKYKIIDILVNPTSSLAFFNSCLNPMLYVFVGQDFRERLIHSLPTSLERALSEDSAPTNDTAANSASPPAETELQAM
# Assay Procedure: FPR2 cyclic adenosine monophosphate (cAMP) assay
# Measurement Parameters: CHO cells overexpressing human FPR2; forskolin 5 μM; inhibition of cAMP production; HTRF; read-out: hFPR2 cAMP2 EC50
Measurement Kind: EC50 (nM)
Numbers only here, please. The scale is nM.

State the recorded EC50 for this entry: COc1cc(F)c(-c2c(NC(=O)c3ccc(OC(F)F)cc3)c(=O)n(-c3nc(N4CCN(C)CC4)ccc3C#N)n2C)c(F)c1 32

State the recorded EC50 for this entry: COc1cc(F)c(-c2c(NC(=O)c3ccc(OC(F)F)cc3)c(=O)n(-c3nc(C(C)(C)C)ccc3C#N)n2C)c(F)c1 3

State the recorded EC50 for this entry: COc1cc(F)c(-c2c(NC(=O)c3ccc(OC(F)(F)F)cc3)c(=O)n(-c3ncccc3C(F)(F)F)n2C)c(F)c1 4

State the recorded EC50 for this entry: COc1cc(OCC2(C)COC2)nc(-n2c(=O)c(NC(=O)c3ccc(OC(F)F)cc3)c(-c3c(F)cc(OC)cc3F)n2C)c1 2

State the recorded EC50 for this entry: COc1cc(F)c(-c2c(NC(=O)c3ccc(OC(F)F)cc3)c(=O)n(-c3cc(F)ccc3Cl)n2C)c(F)c1 10

State the recorded EC50 for this entry: COc1cc(F)c(-c2c(NC(=O)c3ccc(OC(F)F)cc3)c(=O)n(-c3cc(OCC4(C)COC4)cc(C)n3)n2C)c(F)c1 23

---

# Target System: human FPR1 (Homo sapiens)
# Assay Procedure: FPR1 cyclic adenosine monophosphate (cAMP) assay
# Measurement Parameters: CHO cells overexpressing human FPR1; forskolin 10 μM; inhibition of cAMP production; HTRF; read-out: hFPR1 cAMP2 EC50
I'd be grateful if you could share measured EC50 for these entries.

State the recorded EC50 for this entry: COc1cc(C)cc(-n2c(=O)c(NC(=O)c3ccc(OC(F)F)cc3)c(-c3c(F)cc(OC)cc3F)n2C)c1 > 10 µM

State the recorded EC50 for this entry: COc1cc(F)c(-c2c(NC(=O)c3ccc(OC(F)F)cc3)c(=O)n(-c3nc(N4CCN(S(C)(=O)=O)CC4)ccc3C(F)(F)F)n2C)c(F)c1 1.5 µM

State the recorded EC50 for this entry: COc1cc(F)c(-c2c(NC(=O)c3ccc(OC(F)F)cc3)c(=O)n(-c3cc(C)cc(OCC4(C)COC4)n3)n2C)c(F)c1 1.6 µM

State the recorded EC50 for this entry: COc1cc(F)c(-c2c(NC(=O)c3ccc(OC(F)F)cc3)c(=O)n(-c3cc(OC)ccc3C#N)n2C)c(F)c1 3.9 µM

State the recorded EC50 for this entry: COC(=O)c1cccc(-n2c(=O)c(NC(=O)c3ccc(OC(F)F)cc3)c(-c3c(F)cc(OC)cc3F)n2C)c1 0.002 µM

State the recorded EC50 for this entry: COc1cc(F)c(-c2c(NC(=O)c3ccc(OC(F)F)cc3)c(=O)n(-c3cc(C)cc(C4CCN(C)CC4)n3)n2C)c(F)c1 > 10 µM

State the recorded EC50 for this entry: COc1cc(F)c(-c2c(NC(=O)c3ccc(OC(F)F)cc3)c(=O)n(-c3nc(C4CCC4)ccc3C#N)n2C)c(F)c1 4.8 µM

State the recorded EC50 for this entry: COc1cc(F)c(-c2c(NC(=O)c3ccc(OC(F)F)cc3)c(=O)n(-c3nc(C(F)(F)F)ccc3OC[C@H](C)O)n2C)c(F)c1 > 10 µM

State the recorded EC50 for this entry: COc1cc(F)c(-c2c(NC(=O)c3ccc(OC(F)F)cc3)c(=O)n(-c3cccc(N4CCN(CCCO)CC4)n3)n2C)c(F)c1 > 10 µM

State the recorded EC50 for this entry: COc1cc(F)c(-c2c(NC(=O)c3ccc(OC(F)F)cc3)c(=O)n(-c3cc(F)ccc3C#N)n2C)c(F)c1 > 10 µM

State the recorded EC50 for this entry: COc1cc(F)c(-c2c(NC(=O)c3ccc(OC(F)F)cc3)c(=O)n(-c3nc(OCC(C)(C)O)ccc3C(F)(F)F)n2C)c(F)c1 > 10 µM

State the recorded EC50 for this entry: COc1cc(F)c(-c2c(NC(=O)c3ccc(OC(F)F)cc3)c(=O)n(-c3ccccc3C#N)n2C)c(F)c1 > 10 µM

State the recorded EC50 for this entry: COc1cc(F)c(-c2c(NC(=O)c3ccc(OC(F)(F)F)cc3)c(=O)n(-c3cccc(OC(F)F)n3)n2C)c(F)c1 1.4 µM

---

# Target System: human FPR2 (Homo sapiens, UniProt P25090)
# Assay Procedure: FPR2 cyclic adenosine monophosphate (cAMP) assay
# Measurement Parameters: CHO cells overexpressing human FPR2; forskolin 5 μM; inhibition of cAMP production; HTRF; read-out: hFPR2 cAMP2 EC50
I'd be grateful if you could share measured pEC50 for these entries.
Scale: negative log10 of molar concentration, which is what pEC50 denotes.

State the recorded pEC50 for this entry: COc1cc(F)c(-c2c(NC(=O)c3ccc(OC(F)F)cc3)c(=O)n(-c3cc(OC(C)C)cc(OCC(C)(C)O)n3)n2C)c(F)c1 [Example 377] 8.10

State the recorded pEC50 for this entry: COc1cc(OCCO)nc(-n2c(=O)c(NC(=O)c3ccc(OC(F)F)cc3)c(-c3c(F)cc(OC)cc3F)n2C)c1 [Example 332] 8.52

State the recorded pEC50 for this entry: COc1cc(N2CC(OC(C)C)C2)nc(-n2c(=O)c(NC(=O)c3ccc(OC(F)F)cc3)c(-c3c(F)cc(OC)cc3F)n2C)c1 [Example 106] 8.30

State the recorded pEC50 for this entry: COc1cc(F)c(-c2c(NC(=O)c3ccc(OC(F)F)cc3)c(=O)n(-c3cc(C#N)cc(C)n3)n2C)c(F)c1 [Example 328] 7.82

State the recorded pEC50 for this entry: COc1cc(F)c(-c2c(NC(=O)c3ccc(OC(F)(F)F)cc3)c(=O)n(-c3ccccc3F)n2C)c(F)c1 [Example 28] 8.00

State the recorded pEC50 for this entry: COc1cc(-n2c(=O)c(NC(=O)c3ccc(OC(F)F)cc3)c(-c3c(F)cc(OC)cc3F)n2C)nc(C(C)(C)O)c1 [Example 89] 8.52

State the recorded pEC50 for this entry: COc1cc(F)c(-c2c(NC(=O)c3ccc(OC(F)F)cc3)c(=O)n(-c3nc(C(F)(F)F)ccc3OCCO)n2C)c(F)c1 [Example 372] 8.22

State the recorded pEC50 for this entry: COc1cc(F)c(-c2c(NC(=O)c3ccc(OC(F)F)cc3)c(=O)n(-c3nc(N(C)C)ccc3Cl)n2C)c(F)c1 [Example 147] 8.52

State the recorded pEC50 for this entry: COc1cc(C)nc(-n2c(=O)c(NC(=O)c3ccc(OC(F)F)cc3)c(-c3c(F)cc(OC)cc3F)n2C)c1 [Example 376] 8.30

State the recorded pEC50 for this entry: COc1cc(F)c(-c2c(NC(=O)c3ccc(OC(F)F)cc3)c(=O)n(-c3nc(C(C)(C)F)ccc3C#N)n2C)c(F)c1 [Example 194] 8.30

State the recorded pEC50 for this entry: COc1cc(F)c(-c2c(NC(=O)c3ccc(OC(F)F)cc3)c(=O)n(-c3nc(C(F)(F)F)ccc3NCCO)n2C)c(F)c1 [Example 374] 7.66

State the recorded pEC50 for this entry: COc1cc(F)c(-c2c(NC(=O)c3ccc(OC(F)F)cc3)c(=O)n(-c3nc(N4CC(O)C4)ccc3Cl)n2C)c(F)c1 [Example 300] 8.15

State the recorded pEC50 for this entry: COc1cc(F)c(-c2c(NC(=O)c3ccc(OC(F)F)cc3)c(=O)n(-c3nc(NC[C@H](O)C(F)(F)F)ccc3C(F)(F)F)n2C)c(F)c1 [Example 274] 8.70
